TARGET_ENTITY: UniProt:Q99571
Sequence (Q99571 1-388): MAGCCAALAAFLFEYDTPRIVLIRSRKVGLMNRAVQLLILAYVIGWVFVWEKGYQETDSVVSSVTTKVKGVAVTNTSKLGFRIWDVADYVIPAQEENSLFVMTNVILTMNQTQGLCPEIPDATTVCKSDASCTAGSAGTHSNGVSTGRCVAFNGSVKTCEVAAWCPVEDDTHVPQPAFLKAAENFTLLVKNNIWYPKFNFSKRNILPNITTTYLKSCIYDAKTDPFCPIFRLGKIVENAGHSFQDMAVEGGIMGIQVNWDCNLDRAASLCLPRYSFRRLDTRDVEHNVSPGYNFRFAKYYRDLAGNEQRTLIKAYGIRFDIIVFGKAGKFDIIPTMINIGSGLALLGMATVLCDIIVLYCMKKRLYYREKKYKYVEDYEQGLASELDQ
PROTOCOL_DESCRIPTION: Assay B: human P2X4 receptor cell line, mitochondrial photina luminescence (agonist Bz-ATP at EC50)
Format: cell-based
Parameters: host or cells: HEK 293 (recombinant, constitutively expressing; with mitochondrial photina in Assay B)
RECORDED_CONDITIONS: HEK human P2X4 cell line, photina luminescence, agonist Bz-ATP at EC50, average
Procedure: The identification of agonists and antagonists of the P2X4 receptor from humans and […] also the quantification of the activity of the compounds of the invention was performed by use of recombinant cell lines. […] The test cell lines constitutively express the mouse or human P2X4 receptors. […] The strength of Fluo8 fluorescence signal or photina luminescence signal corresponds to the level of receptor activation. […] The resulting light signal is measured immediately in the luminometer.
READOUT_KIND: IC50 (nM)

Reference set, count: 5
INSERT INTO measurements (smiles_representation, target_entity, observed_result) VALUES
  ('COc1ccccc1Oc1ccc(NC(=O)Cc2ccccc2)cc1S(N)(=O)=O', 'UniProt:Q99571', 1100),
  ('NS(=O)(=O)c1cc(NC(=O)Cc2ccccc2)ccc1Oc1cncc(Cl)c1', 'UniProt:Q99571', 706),
  ('Cc1cc(C)cc(Oc2ccc(NC(=O)Cc3ccccc3)cc2S(N)(=O)=O)c1', 'UniProt:Q99571', 949),
  ('NS(=O)(=O)c1cc(NC(=O)Cc2ccccc2)ccc1Oc1ccccc1OC(F)(F)F', 'UniProt:Q99571', 609),
  ('NS(=O)(=O)c1cc(NC(=O)Cc2ccccc2Cl)ccc1Oc1cc(Cl)ccn1', 'UniProt:Q99571', 140);

I = NS(=O)(=O)c1cc(NC(=O)Cc2ccc(Cl)cc2Cl)ccc1Oc1cccc(Cl)c1
II = Cc1c(C#N)cccc1Oc1ccc(NC(=O)Cc2ccccc2Cl)cc1S(N)(=O)=O
III = N#Cc1ccc(COc2ccc(NC(=O)Cc3ccccc3Cl)cc2S(N)(=O)=O)cc1
Prompt: Arrange items by their IC50 values in increasing order. Sort the labels as requested; that list is your answer.
Response: III, I, II
(III: 27 nM, I: 159 nM, II: 841 nM)

----------
TARGET_ENTITY: P2X4 (Homo sapiens, UniProt Q99571)
PROTOCOL_DESCRIPTION: Assay B: human P2X4 receptor cell line, mitochondrial photina luminescence (agonist Bz-ATP at EC50)
Format: cell-based
Set-up: host or cells: HEK 293 (recombinant, constitutively expressing; with mitochondrial photina in Assay B)
RECORDED_CONDITIONS: HEK human P2X4 cell line, photina luminescence, agonist Bz-ATP at EC50, average; read-out: human P2X4 Assay B avg Efficacy
READOUT_KIND: Emax (%)

Reference set, count: 6
INSERT INTO results (smiles_representation, observed_result) VALUES
  ('NS(=O)(=O)c1cc(NC(=O)Cc2c(C(F)(F)F)ccc(Cl)c2Cl)ccc1Oc1cccc(Cl)c1', 66),
  ('N#Cc1ncc(Cl)cc1Oc1ccc(NC(=O)Cc2ccccc2Cl)cc1S(N)(=O)=O', 73),
  ('NS(=O)(=O)c1cc(NC(=O)Cc2ccccc2Cl)ccc1OCCc1ccccc1', 65),
  ('N#Cc1cc(F)cc(Oc2ccc(NC(=O)Cc3ccccc3Cl)cc2S(N)(=O)=O)c1', 71),
  ('NS(=O)(=O)c1cc(NC(=O)Cc2ccccc2Cl)ccc1Oc1ccc(N2CCOCC2=O)cc1', 64),
  ('NS(=O)(=O)c1cc(NC(=O)Cc2ccccc2Cl)ccc1OC1CCOCC1', 77);

I = NS(=O)(=O)c1cc(NC(=O)Cc2ccccc2Cl)ccc1OC1COC1
II = CC(C)c1cccc(Oc2ccc(NC(=O)Cc3ccccc3Cl)cc2S(N)(=O)=O)c1
Prompt: Sorting by Emax in descending order, would I or II appear first? Give the chosen item's label as your response.
Response: II

----------
TARGET_ENTITY: P2X4 (Homo sapiens)
Sequence (Q99571 1-388): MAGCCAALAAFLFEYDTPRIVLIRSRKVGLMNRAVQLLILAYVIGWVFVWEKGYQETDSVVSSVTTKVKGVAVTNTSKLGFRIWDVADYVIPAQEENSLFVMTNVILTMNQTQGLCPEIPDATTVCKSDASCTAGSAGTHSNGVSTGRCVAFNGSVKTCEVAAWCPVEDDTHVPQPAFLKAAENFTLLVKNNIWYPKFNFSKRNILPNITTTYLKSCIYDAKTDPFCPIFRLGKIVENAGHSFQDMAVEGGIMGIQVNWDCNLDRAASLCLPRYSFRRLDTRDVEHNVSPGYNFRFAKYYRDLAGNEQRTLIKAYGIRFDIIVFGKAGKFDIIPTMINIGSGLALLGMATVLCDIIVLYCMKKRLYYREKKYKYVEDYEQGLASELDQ
PROTOCOL_DESCRIPTION: Assay B: human P2X4 receptor cell line, mitochondrial photina luminescence (agonist Bz-ATP at EC50)
Format: cell-based
Parameters: host or cells: HEK 293 (recombinant, constitutively expressing; with mitochondrial photina in Assay B)
RECORDED_CONDITIONS: HEK human P2X4 cell line, photina luminescence, agonist Bz-ATP at EC50, average
READOUT_KIND: IC50 (nM)

INSERT INTO assay_data (smiles_representation, target_entity, observed_result) VALUES
  ('Cc1ccc(CC(=O)Nc2ccc(Oc3cccc(Cl)c3)c(S(N)(=O)=O)c2)nc1', 'P2X4 (Homo sapiens)', 1060),
  ('COCCN(C)C(=O)c1cccc(CC(=O)Nc2ccc(Oc3cccc(Cl)c3)c(S(N)(=O)=O)c2)c1', 'P2X4 (Homo sapiens)', 552),
  ('NS(=O)(=O)c1cc(NC(=O)Cc2ccccc2OC(F)(F)F)ccc1Oc1cccc(Cl)c1', 'P2X4 (Homo sapiens)', 203),
  ('NS(=O)(=O)c1cc(NC(=O)Cc2ccncc2)ccc1Oc1cccc(Cl)c1', 'P2X4 (Homo sapiens)', 2560),
  ('CC(C)c1cccc(Oc2ccc(NC(=O)Cc3ccccc3Cl)cc2S(N)(=O)=O)c1', 'P2X4 (Homo sapiens)', 95),
  ('Cc1ccc(F)c(Oc2ccc(NC(=O)Cc3ccccc3)cc2S(N)(=O)=O)c1', 'P2X4 (Homo sapiens)', 392),
  ('NS(=O)(=O)c1cc(NC(=O)Cc2ccccc2Cl)ccc1OCC1(F)CCOCC1', 'P2X4 (Homo sapiens)', 578),
  ('N#Cc1cccc(COc2ccc(NC(=O)Cc3ccccc3Cl)cc2S(N)(=O)=O)c1', 'P2X4 (Homo sapiens)', 60);

I = CC(=O)c1cccc(Oc2ccc(NC(=O)Cc3ccccc3Cl)cc2S(N)(=O)=O)c1
II = NS(=O)(=O)c1cc(NC(=O)Cc2ccccc2OC(F)F)ccc1Oc1cccc(Cl)c1
Prompt: Input pair: I , II . Output: entry with lower IC50. Give the chosen item's label as your response.
Response: I
(I: 122 nM, II: 239 nM)

I = NS(=O)(=O)c1cc(NC(=O)Cc2ccncc2Cl)ccc1Oc1cccc(Cl)c1
II = NS(=O)(=O)c1cc(NC(=O)Cc2ccccc2Cl)ccc1OCC1CCCC1
Prompt: Sorting by IC50 in descending order, would I or II appear first? Give the chosen item's label as your response.
Response: I

1 = NS(=O)(=O)c1cc(NC(=O)Cc2ccc(Cl)cc2)ccc1Oc1ccc(Cl)cc1
2 = Cc1ccc(CC(=O)Nc2ccc(Oc3cccc(Cl)c3)c(S(N)(=O)=O)c2)c(Cl)c1
Prompt: Input pair: 1 , 2 . Output: entry with lower IC50. Give the chosen item's label as your response.
Response: 2

----------
TARGET_ENTITY: UniProtKB Q99571
Sequence (Q99571 1-388): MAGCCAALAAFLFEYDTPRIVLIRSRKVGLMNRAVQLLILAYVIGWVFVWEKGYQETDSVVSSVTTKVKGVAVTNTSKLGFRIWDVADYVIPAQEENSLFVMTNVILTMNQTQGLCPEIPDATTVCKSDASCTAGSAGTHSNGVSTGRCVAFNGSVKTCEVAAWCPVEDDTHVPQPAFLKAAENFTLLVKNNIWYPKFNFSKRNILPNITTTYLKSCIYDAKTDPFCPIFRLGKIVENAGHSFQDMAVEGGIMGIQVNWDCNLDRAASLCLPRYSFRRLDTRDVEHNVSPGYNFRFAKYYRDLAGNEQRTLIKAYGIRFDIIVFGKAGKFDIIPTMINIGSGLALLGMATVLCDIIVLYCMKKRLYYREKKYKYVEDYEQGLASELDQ
PROTOCOL_DESCRIPTION: Assay B: human P2X4 receptor cell line, mitochondrial photina luminescence (agonist Bz-ATP at EC50)
Assay type: cell-based
Set-up: host or cells: HEK 293 (recombinant, constitutively expressing; with mitochondrial photina in Assay B)
RECORDED_CONDITIONS: HEK human P2X4 cell line, photina luminescence, agonist Bz-ATP at EC50, average; read-out: human P2X4 Assay B avg Efficacy
READOUT_KIND: Emax (%)

INSERT INTO measurements (compound, target_entity, readout_unit, observed_result) VALUES
  ('NS(=O)(=O)c1cc(NC(=O)Cc2c(F)ccc(F)c2Cl)ccc1Oc1cccc(Cl)c1 [Example 122]', 'UniProtKB Q99571', '%', 54),
  ('NS(=O)(=O)c1cc(NC(=O)Cc2ccccc2Cl)cnc1Oc1cccc(C(F)(F)F)c1 [Example 168]', 'UniProtKB Q99571', '%', 85),
  ('Cn1cc(Oc2ccc(NC(=O)Cc3ccccc3Cl)cc2S(N)(=O)=O)cn1 [Example 233]', 'UniProtKB Q99571', '%', 79);

I = NS(=O)(=O)c1cc(NC(=O)Cc2c(Cl)ccc3c2CCO3)ccc1Oc1cccc(Cl)c1 [Example 278]
II = NS(=O)(=O)c1cc(NC(=O)Cc2ccccc2)ccc1Oc1ccc(OC(F)(F)F)cc1 [Example 252]
Prompt: Sorting by Emax in descending order, would I or II appear first? Give the chosen item's label as your response.
Response: II
(II: 93%, I: 65%)

src = patent US20180338980A1
